Biological target: T1, human LIV-1 (human, UniProt Q13433 29-755)
T1 sequence (looked up): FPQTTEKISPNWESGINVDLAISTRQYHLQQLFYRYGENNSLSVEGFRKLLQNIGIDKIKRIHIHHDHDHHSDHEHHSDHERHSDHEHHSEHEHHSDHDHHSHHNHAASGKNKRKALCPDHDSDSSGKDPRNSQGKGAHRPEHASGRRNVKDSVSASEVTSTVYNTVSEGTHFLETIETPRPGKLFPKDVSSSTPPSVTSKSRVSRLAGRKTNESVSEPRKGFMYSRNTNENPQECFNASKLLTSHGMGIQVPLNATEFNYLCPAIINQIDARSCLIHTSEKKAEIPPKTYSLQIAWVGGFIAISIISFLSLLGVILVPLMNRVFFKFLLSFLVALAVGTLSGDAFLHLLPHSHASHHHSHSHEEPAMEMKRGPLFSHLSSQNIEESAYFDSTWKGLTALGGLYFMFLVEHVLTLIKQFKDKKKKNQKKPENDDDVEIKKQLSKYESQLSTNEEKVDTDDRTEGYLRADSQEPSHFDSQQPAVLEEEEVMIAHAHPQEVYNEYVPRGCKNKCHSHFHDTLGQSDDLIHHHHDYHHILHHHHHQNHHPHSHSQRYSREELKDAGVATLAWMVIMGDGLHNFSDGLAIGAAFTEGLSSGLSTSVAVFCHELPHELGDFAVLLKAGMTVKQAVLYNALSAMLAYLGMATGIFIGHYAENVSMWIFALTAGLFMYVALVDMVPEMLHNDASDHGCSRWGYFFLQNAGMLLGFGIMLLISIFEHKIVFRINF
Test: cell-based or functional assay
readout_name: ADCC reporter EC50 (nM)
Reply with just the number (in nM).

As a guide, the following entries are already answered.
47G1B10 (antibody, V domains shown, Tested as chimeric antibody) VH: QVQLKQSGPGLVQPSQSLSITCTVSGFSLTTYGVHWVRQSPGKGLEWLGVIWTGGTTDYNAAFISRLSISKDNSKSQVFFKMNSLQANDTAIYYCARGPSSYWGQGTLVTVSA VL: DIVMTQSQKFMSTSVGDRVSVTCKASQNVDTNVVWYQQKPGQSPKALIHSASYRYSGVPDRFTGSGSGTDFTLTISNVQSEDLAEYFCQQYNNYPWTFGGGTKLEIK	0.3
135C6E7 (antibody, V domains shown, Tested as chimeric antibody) VH: EVQLVESGGGLVQPKGSLKLSCAASGFTFNTYAMNWVRQAPGKGLEWVARIRSKYNSYATYYADSVKDRFTISRDDSQSILYLQMNNLKTEDTAMYYCVRHEDYDGGFAYWGQGTLVTVSA VL: DIVMSQSPSSLAVSVGEKVTMSCKSSQSLFKSRTRKNYLAWYQQKPGQSPKLLIYWASTRESGVPDRFTGSGSGTDFTLTISSVQAEDLAVYYCKESYNLMYTFGGGTKLEIK	6.4
248H1G3 (antibody, V domains shown, Tested as chimeric antibody) VH: EVQLQQSGPELMKRGASVKISCKTSTFTFTEFTIHWVKQSHGKSLEWIGGINPNTGGTSYNQNFTGKATLTVDKSSITAYMELRSLTSEDSAIYYCAPNWDGYWFFDVWGAGTTVTVSS VL: DIQMTQSPASLSASVGETVTITCRASGNIQNYLAWYQQKQGKSPQLLVYGAKTLADGVPSRFSGSGSGTQFSLKINSLQPEDFGSYYCQHFWSPPLTFGAGTKLELK	0.5

Now for the binder whose ADCC reporter EC50 we want.
Find the measured ADCC reporter EC50 of 293F10B6 (antibody, V domains shown, Tested as chimeric antibody) VH: QVTLKESGPGMLQPSQTLNLTCSFSGFSLNTSGMGVSWIRQPSGKGLEWLAHIFWDDDKRYNPSLKSRLTISKDVSSNQVFLKITSVDTADTATYFCARRARNNYPWFPYWGQGTLVTVSA VL: DIVLTQSPASLAVSLGQRATISCKASQSVDYDGDSYMNWYQQKPGQPPKLLIYAASNLDSGIPARFSGSGSGTDFTLNIHPMEDEDVATYYCQQSNGAPFTFGGGTKLEIK and report it.
7.9
